Below, each entry is listed with its recorded log2 fold change of degron read counts.
# MEASURED_ON: T1, CRBN, Q96SW2
# T1 chain: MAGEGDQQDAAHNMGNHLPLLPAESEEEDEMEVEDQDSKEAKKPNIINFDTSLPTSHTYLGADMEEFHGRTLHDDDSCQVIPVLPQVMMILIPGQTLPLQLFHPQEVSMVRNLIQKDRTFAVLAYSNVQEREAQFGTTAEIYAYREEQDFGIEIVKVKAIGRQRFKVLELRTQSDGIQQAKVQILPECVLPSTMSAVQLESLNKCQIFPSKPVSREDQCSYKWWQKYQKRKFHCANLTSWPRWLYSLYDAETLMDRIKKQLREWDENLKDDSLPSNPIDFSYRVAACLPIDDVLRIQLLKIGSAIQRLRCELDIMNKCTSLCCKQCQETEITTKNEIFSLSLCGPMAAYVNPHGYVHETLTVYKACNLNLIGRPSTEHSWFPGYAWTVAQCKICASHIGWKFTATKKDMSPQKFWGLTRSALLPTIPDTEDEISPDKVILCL
# METHOD_SUMMARY: log2 fold change of degron read counts, EGFP-low vs EGFP+ sorted cells (limma voom), compound-induced degradation; higher = more compound-induced degradation of the degron-EGFP fusion; degrons are variants of IKZF1/3 zinc finger 2; compound dose not given here;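 note: pooled lentiviral library of zinc finger degron-EGFP fusions in mCherry-positive Jurkat cells, FACS-sorted after compound exposure, with degron abundance counted by next-generation sequencing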
# MEASUREMENT_CONDITIONS: Jurkat; 18 h; compound: compound 33 (diphenyl IMiD analogue)
In all, about 8,300 sequences were measured (“log2 fold change of degron read counts, EGFP-low vs EGFP+ sorted cells (limma voom), compound-induced degradation”: median about -1.1, highest 2% from about 3.2 on). This is one part of a sample in which the highest values are shown more often than they occur.
I'd appreciate a reply containing only the number, no unit.

Reference set (10 entries):
- FICEVCGAKFTQKGNLLRHIKL [46F_47I_49E_50V_52G_53A_54K_55F_67L_, Q9UKT9]: 0.972
- FWCPICGAPFTQKGNLLRHIKL [46F_47W_49P_50I_52G_53A_54P_55F_67L_, Q9UKT9]: 2.63
- FGCPICGAPFTQKGNLLRHIKL [46F_47G_49P_50I_52G_53A_54P_55F_67L_, Q9UKT9]: 1.84
- FDCSVCGHPFTQKGNLLRHIKL [46F_47D_49S_50V_52G_53H_54P_55F_67L_, Q9UKT9]: -2.33
- FRCPICGHTFTQKGNLLRHIKL [46F_47R_49P_50I_52G_53H_54T_55F_67L_, Q9UKT9]: -2.15
- FTCPICGAPFTQKGNLLRHIKL [46F_47T_49P_50I_52G_53A_54P_55F_67L_, Q9UKT9]: 2.65
- FKCDICGASFTQKGNLLRHIKL [46F_47K_49D_50I_52G_53A_54S_55F_67L_, Q9UKT9]: -3.19
- FICNQCGREFTQKGNLLRHIKL [46F_47I_49N_50Q_52G_53R_54E_55F_67L_, Q9UKT9]: -3.08
- FWCNICGAPFTQKGNLLRHIKL [46F_47W_49N_50I_52G_53A_54P_55F_67L_, Q9UKT9]: 1.69
- FWCPICGAMFTQKGNLLRHIKL [46F_47W_49P_50I_52G_53A_54M_55F_67L_, Q9UKT9]: 2

Exam item: Please report the measured log2 fold change of degron read counts for FGCPICGRQFTQKGNLLRHIKL [46F_47G_49P_50I_52G_53R_54Q_55F_67L_, Q9UKT9]
Marked response: 0.341

Exam item: Indicate the recorded log2 fold change of degron read counts value for this sequence: FCCNQCGRAFTQKGNLLRHIKL [46F_47C_49N_50Q_52G_53R_54A_55F_67L_, Q9UKT9]
Marked response: -2.71

Exam item: Retrieve log2 fold change of degron read counts measured for FKCEICGAAFTQKGNLLRHIKL [46F_47K_49E_50I_52G_53A_54A_55F_67L_, Q9UKT9] and print it.
Marked response: -1.83

Exam item: Look up and state reported log2 fold change of degron read counts for FICNVCGALFTQKGNLLRHIKL [46F_47I_49N_50V_52G_53A_54L_55F_67L_, Q9UKT9]
Marked response: 0.0338

Exam item: Indicate the recorded log2 fold change of degron read counts value for this sequence: FNCEICGAAFTQKGNLLRHIKL [46F_47N_49E_50I_52G_53A_54A_55F_67L_, Q9UKT9]
Marked response: 0.0717

Exam item: Answer with reported log2 fold change of degron read counts of LMCEICGFKCTQKGNLLRHIKL [46L_47M_49E_50I_52G_53F_54K_55C_67L_, Q9UKT9]
Marked response: 0.918

Exam item: Please give the documented log2 fold change of degron read counts of FRCEVCGAKFTQKGNLLRHIKL [46F_47R_49E_50V_52G_53A_54K_55F_67L_, Q9UKT9]
Marked response: 0.471

Exam item: Quickly give me recorded log2 fold change of degron read counts for FGCNICGAPFTQKGNLLRHIKL [46F_47G_49N_50I_52G_53A_54P_55F_67L_, Q9UKT9]
Marked response: 0.00441
